Data credit: PubChem BioAssay AID449762

Test system: M. tuberculosis H37Rv growth inhibition, 7H9 media
EXPERIMENT_NOTES: M. tuberculosis growth inhibition, HTS (AID 449762);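 also: bacterial growth assessed after seven days of incubation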
TEST_CONDITIONS: measured here: IC90 growth inhibition
Inconclusive results are not listed.
MEASURE: IC90

Previously resolved entries follow.
COC(=O)c1ccc2c(=O)[nH]c(CSc3nc(C)cs3)nc2c1 = > 100 µM
Cc1ccc(-c2c[n+](CC(=O)N3c4ccccc4Sc4ccccc43)c3n2CCC3)cc1 = 20.2 µM

Consider the record given below.
What measured IC90 goes with "Cc1ccc(C(=O)n2c(N)nc3ccccc32)cc1" ? > 100 µM

###

System: M. tuberculosis H37Rv growth inhibition, 7H9 media
EXPERIMENT_NOTES: M. tuberculosis growth inhibition, HTS (AID 449762);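 also: bacterial growth assessed after seven days of incubation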
TEST_CONDITIONS: measured here: IC90 growth inhibition
Records with an inconclusive call do not appear.
IC90 values for the compounds below.

O=C(NN=C1c2ccccc2-c2ccccc21)c1cccc(Br)c1 = > 100 µM
Cc1nn(C(C)(C)C)c(NC(=O)c2ccc(Cl)cc2Cl)c1Br = > 100 µM
CCCN(CC1CC1)C(=O)COC(=O)c1ccc2c(c1)C(=O)N(c1ccc(OCC)cc1)C2=O = > 100 µM
CC1(c2nnc(-c3ccncc3)o2)CC(c2ccccc2)=NO1 (stereo not given) = > 100 µM

Consider the record given below.
What measured IC90 goes with "COc1ccccc1N(C)S(=O)(=O)c1ccc(C(=O)Nc2ccc3nc(C)sc3c2)cc1" ? > 100 µM
